# experimentSummary: Cytotoxicity against HUVEC cells assessed as cell viability incubated for 24 hrs by MTT assay
# Assay type: toxicity, cell-based
# conditionContext: human, read-out: Activity
measuredAttribute: viability at 24 h

So for CCCC[C@@H](O)[C@H](O)/C=C/C=C/[C@@H]1CC[C@@H](O)[C@H](C)N1 , the logged viability at 24 h turned out to be ≥ 90%
